Target: GLP-1R (Homo sapiens)
Sequence (P43220 24-463): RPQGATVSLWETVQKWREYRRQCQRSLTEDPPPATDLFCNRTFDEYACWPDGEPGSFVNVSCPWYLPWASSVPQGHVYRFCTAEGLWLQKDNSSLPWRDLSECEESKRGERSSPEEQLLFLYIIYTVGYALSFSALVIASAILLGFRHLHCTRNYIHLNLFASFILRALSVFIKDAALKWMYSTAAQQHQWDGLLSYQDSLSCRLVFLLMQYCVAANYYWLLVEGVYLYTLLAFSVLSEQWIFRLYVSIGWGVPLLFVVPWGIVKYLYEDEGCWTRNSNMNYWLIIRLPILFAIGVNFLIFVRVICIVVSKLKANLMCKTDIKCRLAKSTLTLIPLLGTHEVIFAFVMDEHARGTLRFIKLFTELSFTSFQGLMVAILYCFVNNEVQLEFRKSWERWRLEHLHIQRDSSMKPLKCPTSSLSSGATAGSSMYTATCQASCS
Sequence (P01275 100-127 partner limits assumed): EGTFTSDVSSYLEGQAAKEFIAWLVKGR
Assay: EC20 GLP-1(9-36) PAM cAMP Assay: dose response of compound in the presence of fixed concentration of GLP-1(9-36)
Settings: GLP-1R CRE-bla CHO-K1 cells, in presence of fixed concentration of GLP-1(9-36), 30 min at 37° C.
pEC50: −log10 of the molar value.
For each entry below, report its pEC50 value.

Guide cases for pEC50, answers given:
C[C@@H](NC(=O)[C@H](Cc1ccc(-c2ncc(C3=CCC(C)(C)C=C3)cn2)cc1)NC(=O)c1ccc(C(C)(C)C)s1)C(=O)O :: 5.60 to 6.30
CCCC1CCC(C2CC=C(c3cnc(-c4ccc(CC(NC(=O)c5ccc(C(C)(C)C)s5)C(=O)N5CC(C(=O)O)C5)cc4)nc3)CC2)CC1C (stereo not drawn) :: > 6.30
CC(C)(C)c1ccc(C(=O)N[C@@H](Cc2ccc(-c3ncc(C4=CCC(C(F)(F)F)CC4)cn3)cc2)C(=O)N2CC(C(=O)O)C2)s1 (stereo partly drawn) :: 5.60 to 6.30
CCCC1CCC(C2CC=C(c3cnc(-c4ccc(C[C@H](NC(=O)c5ccc(C6CC6)s5)C(=O)N5CC(C(=O)O)C5)cc4)nc3)CC2)CC1 (stereo partly drawn) :: > 6.30
CC[C@H]1CC[C@H](C2CC=C(c3cnc(-c4ccc(C[C@H](NC(=O)c5ccc(OC(C)(C)C)cc5)C(=O)N5CC(C(=O)O)C5)cc4)nc3)CC2)CC1 (stereo partly drawn) :: 5.60 to 6.30

Now let's try a different one.
Identify pEC50 associated with the compound CC[C@H]1CC[C@H](C2CC=C(c3cnc(-c4ccc(C[C@H](NC(=O)c5ccc(C6CC6)cc5)C(=O)N5CC(C(=O)O)C5)cc4)nc3)CC2)CC1 (stereo partly drawn)
> 6.30

###

Biological target: GLP-1R (Homo sapiens)
Assay: EC20 GLP-1(9-36) PAM cAMP Assay: dose response of compound in the presence of fixed concentration of GLP-1(9-36)
Conditions: GLP-1R CRE-bla CHO-K1 cells, in presence of fixed concentration of GLP-1(9-36), 30 min at 37° C.
measurement-type: EC50

Parameters: items (list). Returns: EC50 for each item.
1. CCO[C@H]1CC[C@@H](C2CC=C(c3cnc(-c4ccc(C[C@H](NC(=O)c5ccc(C(C)(C)C)s5)C(=O)N5CC(C(=O)O)C5)cc4)nc3)CC2)CC1 (stereo partly shown)
2. CCCC1CCC(C2CC=C(c3cnc(-c4ccc(C[C@H](NC(=O)c5ccc(C(C)(C)C)nc5)C(=O)N5CC(C(=O)O)C5)cc4)nc3)CC2)CC1 (stereo partly shown)
3. CC(C)(C)c1ccc(C(=O)N[C@@H](Cc2ccc(-c3ncc(C4=CCC(c5ccccc5)CC4)cn3)cc2)C(=O)N2CC(C(=O)O)C2)s1 (stereo partly shown)
4. C[C@@H](NC(=O)[C@H](Cc1ccc(-c2ncc(C3=CCCC(NC(=O)OC(C)(C)C)C3)cn2)cc1)NC(=O)c1ccc(C(C)(C)C)s1)C(=O)O (stereo partly shown)
5. CC[C@H]1CC[C@H](C2CC=C(c3cnc(-c4ccc(C[C@H](NC(=O)c5ccc(C(F)(F)F)cc5)C(=O)N5CC(C(=O)O)C5)cc4)nc3)CC2)CC1 (stereo partly shown)
6. CCCC1CCC(C2CC=C(c3cnc(-c4ccc(C[C@H](NC(=O)c5ccc(C(C)(C)C)s5)C(=O)N[C@@H](CO)C(=O)O)cc4)nc3)CC2)CC1 (stereo partly shown)
7. CCCC1CCN(C2CC=C(c3cnc(-c4ccc(C[C@H](NC(=O)c5ccc(C(C)(C)C)s5)C(=O)N5CC(C(=O)O)C5)cc4)nc3)CC2)CC1 (stereo partly shown)

["< 0.5 µM", "0.5 to 2.5 µM", "< 0.5 µM", "2.5 to 5 µM", "< 0.5 µM", "< 0.5 µM", "2.5 to 5 µM"]
